From: patent US20240182556A1

Provide the reported absorbance at 1000 ng/mL antibody of each item.
Target: T1, exon 6 peptide (ASSLRNDSSSSNRKAKNPPGDS), coated on ELISA plate (not fully specified)
T1 construct: No biotin is mentioned for the ELISA coat; also called a peptide of SCF248
T1 peptide: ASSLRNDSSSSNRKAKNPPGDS
Assay: direct ELISA on coated peptide, IgG4, read at 450 nm
Numbers only, in absorbance.

BINDER	UNIT_NAME	EXPERIMENTAL_VALUE
H83P mutant expressed as full length IgG4 antibody (antibody, V domains shown, Full length IgG4) VH: QVQLVQSGAELKKPGSSVKISCKSSGYAFSSQWMNWVKQRPGQGLEWIGQIYPGDGDIHYNDKFKGKATLTADKSTSTAYMELSSLTSEDSAVYFCSSSNWVGSYWGQGTLVTVSS VL: DVVMTQSPLSLPVTLGQPASISCKSSQSLLESDGNTYLNWLQQRPGQSPRRLIYLVDRLDSGVPDRFSGSGSGTDFTLKISRVEAEDVGVYYCWQGTDLPQTFGGGTKVEIK	absorbance	2.32
A84P mutant expressed as full length IgG4 antibody (antibody, V domains shown, Full length IgG4) VH: QVQLVQSGAELKKPGSSVKISCKSSGYAFSSQWMNWVKQRPGQGLEWIGQIYPEDGDTHMNGKFKGKATLTADKSTSTAYMELSSLTSEDSAVYFCSSSNWVGSYWGQGTLVTVSS VL: DVVMTQSPLSLPVTLGQPASISCKSSQSLLEEDGNTYLNWLQQRPGQSPRRLIYLVDRLDIGVPDRFSGSGSGTDFTLKISRVEAEDVGVYYCWQGTDLPQTFGGGTKVEIK	absorbance	3.14
F54P mutant expressed as full length IgG4 antibody (antibody, V domains shown, Full length IgG4) VH: QVQLVQSGAELKKPGSSVKISCKSSGYAFSSQWMNWVKQRPGQGLEWIGQIYPEDGDTHMNGKFKTKATLTADKSTSTAYMELSSLTSEDSAVYFCSSSNWVGSYWGQGTLVTVSS VL: DVVMTQSPLSLPVTLGQPASISCKSSQSLLEEDGNTYLNWLQQRPGQSPRRLIYLVDRLDSGVPDRFSGSGSGTDFTLKISRVEAEDVGVYYCWQGTDLPQTFGGGTKVEIK	absorbance	2.42
B124P mutant expressed as full length IgG4 antibody (antibody, V domains shown, Full length IgG4) VH: QVQLVQSGAELKKPGSSVKISCKSSGYAFSSNWMNWVKQRPGQGLEWIGQIYPEDGDTHYNDKFKGKATLTADKSTSTAYMELSSLTSEDSAVYFCSSSNWVGSYWGQGTLVTVSS VL: DVVMTQSPLSLPVTLGQPASISCKSSQSLLEQDGNTYLNWLQQRPGQSPRRLIYLVDRLDSGVPDRFSGSGSGTDFTLKISRVEAEDVGVYYCWQGTDLPQTFGGGTKVEIK	absorbance	2.76

Would you kindly look at the next entry?
Please give the measured absorbance at 1000 ng/mL antibody for this binder: A104P mutant expressed as full length IgG4 antibody (antibody, V domains shown, Full length IgG4) VH: QVQLVQSGAELKKPGSSVKISCKSSGYAFSSQWMNWVKQRPGQGLEWIGQIYPEDGDTHYNGKFKGKATLTADKSTSTAYMELSSLTSEDSAVYFCSSSNWVGSYWGQGTLVTVSS VL: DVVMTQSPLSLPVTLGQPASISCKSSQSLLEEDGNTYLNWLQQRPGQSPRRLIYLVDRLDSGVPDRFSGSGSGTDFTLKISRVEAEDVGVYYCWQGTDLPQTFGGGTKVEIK
2.94
